Cited source: the supplement of paper PMC7877785

Each record here notes measured self-splicing fitness (ln).
assay: self-splicing fitness, log relative to wild type (ln ratio); higher = more splicing; Tetrahymena group I intron in knt gene, E. coli kanamycin selection, DiMSum; sequences stand for … in CUCUCU…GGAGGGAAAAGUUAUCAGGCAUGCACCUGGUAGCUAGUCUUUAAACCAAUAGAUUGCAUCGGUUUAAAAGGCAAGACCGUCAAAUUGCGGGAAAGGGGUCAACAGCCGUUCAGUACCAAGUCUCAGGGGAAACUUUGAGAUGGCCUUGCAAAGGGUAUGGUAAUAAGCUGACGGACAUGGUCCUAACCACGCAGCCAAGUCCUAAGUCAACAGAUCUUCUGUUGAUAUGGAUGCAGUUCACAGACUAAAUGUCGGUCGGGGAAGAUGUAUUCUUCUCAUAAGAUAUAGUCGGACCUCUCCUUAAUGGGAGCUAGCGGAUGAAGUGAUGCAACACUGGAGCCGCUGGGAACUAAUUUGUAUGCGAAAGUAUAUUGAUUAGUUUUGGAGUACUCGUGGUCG; settings: 37 °C;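 note: selection with 25 µg/mL kanamycin versus none on LB agar overnight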
Please reply with the value in numeric form only.

Example results:
GCAGAGCAAUAUUACGCGCA	-1.61
AGCCAGCAAUAUUACGGUAA	-0.323
GACAAGCAAUAUUACGGGAG	-1.52
ACCGAGCAAUAUUACGGCCA	-0.469
CUCUAGCAAUAUUACGCAUC	-2.64
CUAGAGCAAUAUUACGAGUU	-2.36
GUGCAGCAAUAUUACGAGGA	-1.74

Now, please, on to the next sequence.
// self-splicing fitness (ln) lookup, sequence = "GUAUAGCAAUAUUACGCAUC" , result: -0.982

###

assay: self-splicing fitness, log relative to wild type (ln ratio); higher = more splicing; Tetrahymena group I intron in knt gene, E. coli kanamycin selection, DiMSum; sequences stand for … in CUCUCU…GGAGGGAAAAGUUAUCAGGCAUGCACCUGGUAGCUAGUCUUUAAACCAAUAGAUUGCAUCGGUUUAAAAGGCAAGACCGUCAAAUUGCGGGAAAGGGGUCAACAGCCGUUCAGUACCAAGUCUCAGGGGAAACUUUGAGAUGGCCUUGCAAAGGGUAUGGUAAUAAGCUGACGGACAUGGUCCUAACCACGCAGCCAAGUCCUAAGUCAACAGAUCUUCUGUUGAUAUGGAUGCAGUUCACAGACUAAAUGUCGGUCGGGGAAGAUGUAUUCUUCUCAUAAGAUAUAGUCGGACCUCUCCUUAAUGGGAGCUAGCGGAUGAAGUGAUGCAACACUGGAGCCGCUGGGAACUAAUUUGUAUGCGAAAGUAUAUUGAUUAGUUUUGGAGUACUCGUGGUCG; conditions: 37 °C
Each record here notes measured self-splicing fitness (ln).
Please reply with the value in numeric form only.

GUGGAGCAAUAUUACGAGUA	-1.96
GAACAGCAAUAUUACGCACC	0.0849
CAUCAGCAAUAUUACGACCG	0.366
CCGUAGCAAUAUUACGUGAU	-2.43
GAUUAGCAAUAUUACGUUAC	-2.53

// self-splicing fitness (ln) lookup, sequence = "GUGUAGCAAUAUUACGGUCG" , result: -0.824

// self-splicing fitness (ln) lookup, sequence = "AGGGAGCAAUAUUACGACCA" , result: -0.171

###

assay: self-splicing fitness, log relative to wild type (ln ratio); higher = more splicing; Tetrahymena group I intron in knt gene, E. coli kanamycin selection, DiMSum; sequences stand for … in CUCUCU…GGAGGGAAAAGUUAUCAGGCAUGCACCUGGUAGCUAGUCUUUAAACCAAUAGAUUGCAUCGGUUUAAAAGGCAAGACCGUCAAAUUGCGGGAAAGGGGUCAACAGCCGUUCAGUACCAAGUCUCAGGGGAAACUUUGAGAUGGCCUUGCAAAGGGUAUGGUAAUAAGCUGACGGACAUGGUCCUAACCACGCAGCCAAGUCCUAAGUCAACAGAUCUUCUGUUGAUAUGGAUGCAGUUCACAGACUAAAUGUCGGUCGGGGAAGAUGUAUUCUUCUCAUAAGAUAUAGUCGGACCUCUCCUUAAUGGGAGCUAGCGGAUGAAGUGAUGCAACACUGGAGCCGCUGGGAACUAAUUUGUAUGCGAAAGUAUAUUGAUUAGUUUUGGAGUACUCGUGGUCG; details: 30 °C
Think of -2 as a floor: if self-splicing fitness (ln) stands on it or above, it is t; beneath it, f.

Would you please look over these solved cases?
AUGGAGCAAUAUUACGUUCC	f
AAUGAGCAAUAUUACGUGCA	f
UGGAAGCAAUAUUACGAUUG	t
CCCCAGCAAUAUUACGCUAU	f
UUCCAGCAAUAUUACGCUUC	f
UUUGAGCAAUAUUACGUACC	f

Please find the next sequence below.
Could you please find out whether "ACGAAGCAAUAUUACGAACG" has self-splicing fitness (ln) that meets -2 or exceeds it?
t
